- target: ABHD6 (Mus musculus, UniProt Q8R2Y0)
- Construct: Proteomes (mouse brain membrane fraction or cell lysates); from tissue; host or cells: mouse brain membrane fraction (or unspecified cell lysates)
- Sequence (Q8R2Y0 whole entry): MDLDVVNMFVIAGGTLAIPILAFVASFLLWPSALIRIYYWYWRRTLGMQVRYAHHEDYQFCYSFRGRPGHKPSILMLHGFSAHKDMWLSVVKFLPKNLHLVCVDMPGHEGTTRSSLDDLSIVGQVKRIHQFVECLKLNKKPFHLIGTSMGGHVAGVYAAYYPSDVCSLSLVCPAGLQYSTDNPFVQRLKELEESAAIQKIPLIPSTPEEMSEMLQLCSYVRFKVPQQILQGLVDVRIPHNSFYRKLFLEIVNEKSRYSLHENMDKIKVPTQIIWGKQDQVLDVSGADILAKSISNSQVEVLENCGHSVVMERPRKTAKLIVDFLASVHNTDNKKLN
- protocol text: In vitro competitive activity-based protein profiling (mouse), ABHD6
- Format: biochemical
- experimental conditions: 1 μM, mouse proteome, in vitro; read-out: % Inhibition at 1 μM ABHD6
readout type: inhibition at 1 µM

Worked examples, 3 molecules total:
Cc1c(CN2CCN(C(=O)OC(C(F)(F)F)C(F)(F)F)CC2)cccc1N1CCC(NS(C)(=O)=O)CC1 > 75%
O=C(OC(C(F)(F)F)C(F)(F)F)N1CCN(Cc2ccc(Cl)cc2N2CC[C@@H](N3CCCS3(=O)=O)C2)CC1 > 75%
O=C(OC(C(F)(F)F)C(F)(F)F)N1CCN(Cc2ccc(CN3CCCC3)cc2OC(F)(F)F)CC1 < 25%

Now take the following molecule into account.
Recall and state the measured inhibition at 1 µM for O=C(OC(C(F)(F)F)C(F)(F)F)N1CCN(Cc2ccc(C(F)(F)F)c(N3CC4CCC(C3)O4)c2)CC1 . > 75%
